The following sequences are shown together with reported pIC50 values.
- Measured target: HLA-A*02:01
- Method summary: IEDB peptide-MHC binding, purified MHC/competitive/radioactivity; bounds were set here for any values at or beyond the usual limits of such assays
- Condition details: source organism: Hepacivirus hominis
Scale note: pIC50 = -log10(concentration in M).

Sample records with pIC50:
RLVPGATYAL :: 6.82
YMLVLAEALI :: 6.82
WMMLLIAQA :: 7.12
ALMIAAQVVV :: 6.89

Could you now consider this next sequence?
Name the reported pIC50 value associated with the sequence MLLIAQAEA
7.09

* * *

- Measured target: HLA-A*02:03
- Method summary: IEDB peptide-MHC binding, cellular MHC/competitive/fluorescence; bounds were set here for any values at or beyond the usual limits of such assays
- Condition details: source organism: Vaccinia virus WR
Parameter measured: pIC50
// returns pIC50 (minus log10 of molar concentration), number only

Worked cases, pIC50 given:
SADNHPKMI :: 4.36
IISTDQDTM :: 4.48

# get_value(readout='pIC50', item= TTPLISFFGL )
4.76

May I ask what pIC50 has been recorded for VIVENDNVI ?
4.71

Could you tell me which pIC50 is on file for LLTHGADPNA ?
5.12

Need pIC50, item VVKDKIKLPT
5.07

If you can, please state the reported pIC50 value of NAILHNIYRL .
4.99

Please give the measured pIC50 for this sequence: EQGDIALAL
4.96

I'd like to know its pIC50. The sequence in question is FASADNHPKM
4.32

// returns reported pIC50 for input NMDKVSAQNI
4.77

Which value of pIC50 has been reported for TTTFITVLT in the records?
5.07
